Items are presented alongside their recorded Maximal Downregulation (% CD33 remaining).
target: human CD33 on primary human monocyte-derived dendritic cells (human, UniProt P20138 18-364); assay: cell-based or functional assay
Sequence (P20138 18-364): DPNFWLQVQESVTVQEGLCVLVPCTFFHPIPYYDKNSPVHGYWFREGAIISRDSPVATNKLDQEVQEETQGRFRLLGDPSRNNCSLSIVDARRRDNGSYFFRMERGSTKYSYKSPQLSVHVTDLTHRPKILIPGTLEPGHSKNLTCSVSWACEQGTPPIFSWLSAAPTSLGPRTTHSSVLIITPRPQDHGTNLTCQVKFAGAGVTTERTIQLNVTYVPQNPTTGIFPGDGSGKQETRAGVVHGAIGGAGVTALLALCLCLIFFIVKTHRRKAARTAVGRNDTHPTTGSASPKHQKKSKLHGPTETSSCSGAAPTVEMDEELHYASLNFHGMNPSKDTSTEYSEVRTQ
The reply should be a number in %, with the unit left off.

Known results for binders:
Binder	Result value
AB-H26 (antibody, V domains shown, Humanized variant of murine 2F5.1; also called AB-26) VH: QVQLVQSGAEVKKPGASVKVSCKASGYTFTDYNLHWVRQAPGQRLEWIGFIYPSNGITGYSQKFQGRATLTVDTSASTAYMELSSLRSEDTAVYYCARSTVDYFDYWGQGTTVTVSS VL: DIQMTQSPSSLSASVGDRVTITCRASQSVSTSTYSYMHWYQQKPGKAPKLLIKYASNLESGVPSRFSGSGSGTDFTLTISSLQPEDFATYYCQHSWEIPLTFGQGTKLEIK	21.9
AB-H22 (antibody, V domains shown, Humanized variant of murine 2F5.1; also called AB-22) VH: QVQLVQSGAEVKKPGASVKISCKASGYTFTDYNLHWVRQAPGQRLEWIGFIYPSNGITGYNQKFKNKATLTVDTSASTAYMELSSLRSEDTAVYYCARSTVDYFDYWGQGTTVTVSS VL: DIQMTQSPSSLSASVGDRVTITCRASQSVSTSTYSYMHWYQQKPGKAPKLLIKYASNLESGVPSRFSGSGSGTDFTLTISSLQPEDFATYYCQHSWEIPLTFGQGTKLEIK	22.6

Let's switch to this binder now.
Record AB-H63 (antibody, V domains shown, Humanized variant of murine 2F5.1) VH: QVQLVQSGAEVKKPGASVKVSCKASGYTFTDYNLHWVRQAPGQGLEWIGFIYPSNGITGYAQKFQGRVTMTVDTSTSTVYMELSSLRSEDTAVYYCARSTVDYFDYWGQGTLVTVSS VL: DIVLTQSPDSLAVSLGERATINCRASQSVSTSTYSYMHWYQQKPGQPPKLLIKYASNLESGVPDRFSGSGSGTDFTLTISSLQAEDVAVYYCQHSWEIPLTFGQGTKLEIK . Reported Maximal Downregulation (% CD33 remaining): 20.3
